His tagged PTPN2 (TC45) protein (Homo sapiens): reported IC50 for various molecules.
Sequence (P17706 with tags, fused parts or gaps isoform P17706-2): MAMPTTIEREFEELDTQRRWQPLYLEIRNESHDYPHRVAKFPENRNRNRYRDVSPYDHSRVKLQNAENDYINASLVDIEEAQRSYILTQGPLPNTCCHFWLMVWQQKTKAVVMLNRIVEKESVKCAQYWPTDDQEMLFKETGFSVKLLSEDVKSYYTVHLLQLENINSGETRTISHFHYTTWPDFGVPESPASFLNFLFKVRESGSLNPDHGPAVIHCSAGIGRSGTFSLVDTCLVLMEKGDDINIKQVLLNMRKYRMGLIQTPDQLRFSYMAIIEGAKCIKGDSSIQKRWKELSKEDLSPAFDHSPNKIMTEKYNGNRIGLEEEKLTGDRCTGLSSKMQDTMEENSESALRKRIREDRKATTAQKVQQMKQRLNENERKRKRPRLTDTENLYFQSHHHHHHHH

Examples with their reported IC50 follow.
# MOLECULE, IC50
measured = [
    ("O=C1CN(c2c(O)cc3c(c2F)C[C@H](NCCC2CCOC2)CO3)S(=O)(=O)N1 (stereo partly drawn)", "0.01 to 0.1 µM"),
    ("O=C1CN(c2c(O)cc3c(c2F)C[C@H](NCCC2CCOCC2)CC3)S(=O)(=O)N1", "0.001 to 0.01 µM"),
    ("O=C1CN(c2c(O)cc3c(c2F)CN(CCCc2cccc(C(F)(F)F)c2)CC3)S(=O)(=O)N1", "0.01 to 0.1 µM"),
]

Please report IC50 for every entry that follows.
1. Cc1nn(C(C)C)c(C)c1CCN1CCc2cc(O)c(N3CC(=O)NS3(=O)=O)c(F)c2C1
2. O=C1CN(c2c(O)cc3c(c2F)CC(CNCCCC2CC2)CC3)S(=O)(=O)N1 (stereo not drawn)
3. O=C1CN(c2c(O)cc3c(c2F)C(=O)NCC3)S(=O)(=O)N1
4. O=C1CN(c2c(O)cc3c(c2F)C[C@H](NCC2CCC(C(F)(F)F)CC2)CO3)S(=O)(=O)N1 (stereo partly drawn)
5. CC(C)CNCC1CCc2cc(O)c(N3CC(=O)NS3(=O)=O)c(F)c2C1 (stereo not drawn)
6. CC(C)CCN[C@@H]1CCc2cc(O)c(N3CC(=O)NS3(=O)=O)c(F)c2[C@H]1O

result:
0.001 to 0.01 µM
0.01 to 0.1 µM
> 0.1 µM
0.01 to 0.1 µM
0.01 to 0.1 µM
0.01 to 0.1 µM

Sourced from patent US20250122160A1
